Overview of reported relative signal [%] across a group of binders:
# Tested Target: monoclonal antibody mAB 198
# Method Description: peptide microarray, fluorescence, cyclic peptide
Where no end group is shown, it is not given here.
Just the number please, in %, no unit attached.

A selection of reference data follows.
Reported relative signal [%], binder RLRGNPADY (also: cyclic peptide, ring type and places not given here) : ____
32.7

Reported relative signal [%], binder GSLRWNPADYP (also: cyclic peptide, mode of cyclisation not given here) : ____
12.4

Reported relative signal [%], binder VRLRRNPAD (also: cyclic peptide, mode of cyclisation not given here) : ____
14.7

Reported relative signal [%], binder GGSLRWNPADR (also: cyclic peptide, mode of cyclisation not given here) : ____
10.3

We now examine a further binder.
Reported relative signal [%], binder ALRWNPADY (also: cyclic peptide, mode of cyclization not given here) : ____
11.5

Attribution: patent US20230381328A1
